- systemUnderTest: Gastrin/cholecystokinin type B receptor (Mus musculus, UniProt P56481)
- Sequence (P56481 whole entry): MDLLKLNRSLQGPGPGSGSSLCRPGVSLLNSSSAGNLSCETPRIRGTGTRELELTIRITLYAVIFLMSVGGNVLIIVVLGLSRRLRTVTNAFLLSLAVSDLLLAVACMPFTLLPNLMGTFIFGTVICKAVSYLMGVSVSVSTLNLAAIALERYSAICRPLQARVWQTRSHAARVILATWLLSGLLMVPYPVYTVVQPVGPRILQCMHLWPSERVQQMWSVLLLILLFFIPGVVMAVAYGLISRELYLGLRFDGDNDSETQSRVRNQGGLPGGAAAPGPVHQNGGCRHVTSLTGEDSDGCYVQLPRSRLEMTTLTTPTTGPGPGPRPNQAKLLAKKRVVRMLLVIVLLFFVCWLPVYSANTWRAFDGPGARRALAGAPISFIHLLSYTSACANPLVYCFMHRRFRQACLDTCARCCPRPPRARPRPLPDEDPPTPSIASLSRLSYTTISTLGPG
- assaySummary: Binding affinity towards CCK-B receptor in mouse cerebral cortex membrane using [125I]bolton assay
- Format: cell membranes
endpointName: pKi
Note on pKi: it is the negative log10 of concentration, concentration in mol/L.

Prompt: Value lookup for pKi; key = C[C@](Cc1c[nH]c2ccccc12)(NC(=O)OC1C2CC3CC(C2)CC1C3)C(=O)N[C@@H](CC(=O)O)Cc1ccc(N=[N+]=[N-])c(I)c1 (stereo partly specified)
Completion: 9.06
